study.system: UniProt P11388
Sequence (P11388 whole entry): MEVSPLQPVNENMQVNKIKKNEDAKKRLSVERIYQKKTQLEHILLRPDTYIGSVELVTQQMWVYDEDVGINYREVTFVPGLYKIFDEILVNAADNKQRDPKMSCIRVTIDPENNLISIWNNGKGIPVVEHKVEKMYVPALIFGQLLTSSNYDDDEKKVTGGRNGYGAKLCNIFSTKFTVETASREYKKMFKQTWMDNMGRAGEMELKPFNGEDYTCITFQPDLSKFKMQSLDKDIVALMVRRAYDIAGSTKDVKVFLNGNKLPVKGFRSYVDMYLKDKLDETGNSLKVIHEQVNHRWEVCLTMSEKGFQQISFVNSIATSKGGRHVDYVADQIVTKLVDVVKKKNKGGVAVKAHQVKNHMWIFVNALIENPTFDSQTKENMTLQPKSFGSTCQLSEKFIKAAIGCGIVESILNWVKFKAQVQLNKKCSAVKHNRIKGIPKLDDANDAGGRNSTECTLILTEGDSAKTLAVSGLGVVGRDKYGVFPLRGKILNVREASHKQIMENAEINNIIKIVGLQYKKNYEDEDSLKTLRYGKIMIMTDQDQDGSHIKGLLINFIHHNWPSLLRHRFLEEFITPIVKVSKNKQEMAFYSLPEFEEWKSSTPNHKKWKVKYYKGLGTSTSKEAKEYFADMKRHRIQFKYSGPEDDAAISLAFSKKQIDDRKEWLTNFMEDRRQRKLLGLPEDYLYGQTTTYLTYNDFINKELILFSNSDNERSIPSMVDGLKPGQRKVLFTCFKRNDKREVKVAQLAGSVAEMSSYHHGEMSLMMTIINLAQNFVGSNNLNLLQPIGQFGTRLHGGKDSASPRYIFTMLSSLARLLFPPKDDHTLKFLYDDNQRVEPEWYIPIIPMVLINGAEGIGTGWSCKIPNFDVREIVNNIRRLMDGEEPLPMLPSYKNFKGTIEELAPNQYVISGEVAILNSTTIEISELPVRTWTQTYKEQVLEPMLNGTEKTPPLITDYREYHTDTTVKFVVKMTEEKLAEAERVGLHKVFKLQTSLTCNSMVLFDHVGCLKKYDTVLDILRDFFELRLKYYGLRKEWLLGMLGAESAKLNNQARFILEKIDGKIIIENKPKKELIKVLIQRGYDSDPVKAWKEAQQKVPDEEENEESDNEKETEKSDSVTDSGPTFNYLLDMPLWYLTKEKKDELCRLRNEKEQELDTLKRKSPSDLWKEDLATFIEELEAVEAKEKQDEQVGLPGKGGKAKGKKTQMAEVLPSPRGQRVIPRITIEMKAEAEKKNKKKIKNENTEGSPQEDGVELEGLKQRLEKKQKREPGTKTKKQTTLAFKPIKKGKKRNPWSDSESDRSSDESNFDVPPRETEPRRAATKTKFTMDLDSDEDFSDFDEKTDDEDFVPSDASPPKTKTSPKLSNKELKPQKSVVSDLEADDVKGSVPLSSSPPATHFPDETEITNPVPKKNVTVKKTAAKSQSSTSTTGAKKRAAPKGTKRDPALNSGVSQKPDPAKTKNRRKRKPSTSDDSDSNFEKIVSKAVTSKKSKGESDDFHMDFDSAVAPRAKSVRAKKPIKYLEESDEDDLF
protocol.details: Inhibition of DNA topoisomerase 2 in human KB cells assessed as enzyme-[methyl-3H]thymidine-labeled DNA complex formation at 5 uM after 1 hr by K-SDS precipitation assay
Assay type: cell-based
// reported inhibition per item
Express your answer in %, writing the number without its unit.

Below, 2 compounds whose answers are already recorded.
compound	inhibition, %
COc1cc([C@@H]2c3cc4c(cc3[C@@H](NCC(C)O)[C@H]3COC(=O)[C@H]23)OCO4)cc(OC)c1O (some centres undefined)	83.9
COc1cc([C@@H]2c3cc4c(cc3[C@@H](O[C@@H]3O[C@@H]5CO[C@@H](C)O[C@H]5[C@H](O)[C@H]3O)[C@H]3COC(=O)[C@H]23)OCO4)cc(OC)c1O [ETOPOSIDE]	56.2

Look up inhibition for this compound: COc1cc([C@@H]2c3cc4c(cc3[C@@H](NCCO)[C@H]3COC(=O)[C@H]23)OCO4)cc(OC)c1O 70.1

Fill blank: measured inhibition of the compound COc1cc([C@@H]2c3cc4c(cc3[C@@H](NC(C)CO)[C@H]3COC(=O)[C@H]23)OCO4)cc(OC)c1O (some centres undefined) is ____. 89.3
